Every entry's value here was drawn from ChEMBL document CHEMBL1125840.

Give measured pIC50 for each item. Keep answers brief.
# Tested on: Plasmodium falciparum
# protocol_summary: In vitro antimalarial activity against Plasmodium falciparum
# Type: functional, organism-based
Here pIC50 is given on a logarithmic scale as minus log10 of the concentration in mol/L.

## Task Item "NCCCNCCCCCCCCNCCCNCc1ccccc1" has what recorded pIC50?
## Result 4.19

## Task Item "COc1ccc(CNCCCNCCCCCCCNCCCNCc2ccc(OC)cc2)cc1" has what recorded pIC50?
## Result 5.60

## Task Item "CSc1ccc(CNCCCNCCCCCCCNCCCNCc2ccc(SC)cc2)cc1" has what recorded pIC50?
## Result 5.52

## Task Item "c1ccc(CCNCCCNCCCCCCCNCCCNCCc2ccccc2)cc1" has what recorded pIC50?
## Result 5.72

## Task Item "CCc1ccc(CNCCCNCCCCCCCCNCCCNCc2ccc(CC)cc2)cc1" has what recorded pIC50?
## Result 5.85

## Task Item "CSc1ccc(CNCCCNCCCCCCCCNCCCNCc2ccc(SC)cc2)cc1" has what recorded pIC50?
## Result 6.22

## Task Item "C(CCCNCCCNCC1CCCCC1)CCCNCCCNCC1CCCCC1" has what recorded pIC50?
## Result 5.74

## Task Item "NCCCNCCCCCCCNCCCN" has what recorded pIC50?
## Result 2.37

## Task Item "c1ccc(CNCCCCNCCCCCCCNCCCCNCc2ccccc2)cc1" has what recorded pIC50?
## Result 5.49

## Task Item "c1ccc(CNCCCCNCCCCCCCCNCCCCNCc2ccccc2)cc1" has what recorded pIC50?
## Result 5.28

## Task Item "NCCCNCCCCCCCCNCCCN" has what recorded pIC50?
## Result 2.74

## Task Item "c1ccc(CNCCNCCCCCCNCCNCc2ccccc2)cc1" has what recorded pIC50?
## Result 5.35

## Task Item "CS(=O)(=O)c1ccc(CNCCCNCCCCCCCNCCCNCc2ccc(S(C)(=O)=O)cc2)cc1" has what recorded pIC50?
## Result 4.07

## Task Item "Cl.Cl.Cl.Cl.c1ccc(CNCCNCCCCCCCCNCCNCc2ccccc2)cc1" has what recorded pIC50?
## Result 6.52

## Task Item "c1ccc2c(CNCCCNCCCCCCCCNCCCNCc3cccc4ccccc34)cccc2c1" has what recorded pIC50?
## Result 6.47

## Task Item "CCCCNCCCNCCCCCCCCNCCCNCCCC" has what recorded pIC50?
## Result 4.52

## Task Item "CCc1ccc(CNCCCNCCCCCCCNCCCNCc2ccc(CC)cc2)cc1.Cl.Cl.Cl.Cl" has what recorded pIC50?
## Result 5.74

## Task Item "Clc1ccc(CNCCCNCCCCCCCNCCCNCc2ccc(Cl)cc2)cc1" has what recorded pIC50?
## Result 5.85

## Task Item "Oc1ccc(CNCCCNCCCCCCCCNCCCNCc2ccc(O)cc2)cc1" has what recorded pIC50?
## Result 5.24

## Task Item "COc1ccc(CNCCCNCCCCCCCCNCCCNCc2ccc(OC)cc2)cc1" has what recorded pIC50?
## Result 5.89

## Task Item "Cl.Cl.Cl.Cl.c1ccc(CNCCCNCCCCCCCCCCNCCCNCc2ccccc2)cc1" has what recorded pIC50?
## Result 6.30

## Task Item "Cl.Cl.Cl.Cl.c1ccc(CNCCCNCCCCCCCCCNCCCNCc2ccccc2)cc1" has what recorded pIC50?
## Result 6.15

## Task Item "Cl.Cl.Cl.Cl.c1ccc(CNCCCNCCCCCCCCNCCCNCc2ccccc2)cc1" has what recorded pIC50?
## Result 6.10

## Task Item "CS(=O)(=O)c1ccc(CNCCCNCCCCCCCCNCCCNCc2ccc(S(C)(=O)=O)cc2)cc1" has what recorded pIC50?
## Result 4.70

## Task Item "c1ccc(CNCCNCCCCCCCNCCNCc2ccccc2)cc1" has what recorded pIC50?
## Result 5.85

## Task Item "Cl.Cl.Cl.Cl.c1ccc(CNCCCNCCCCNCCCNCc2ccccc2)cc1" has what recorded pIC50?
## Result 4.85

## Task Item "Cl.Cl.Cl.Cl.c1ccc(CNCCCNCCCCCNCCCNCc2ccccc2)cc1" has what recorded pIC50?
## Result 5.17

## Task Item "c1ccc(NCCCNCCCCCCCNCCCNc2ccccc2)cc1" has what recorded pIC50?
## Result 6.30

## Task Item CC(NCCCNCCCCCCCNCCCNC(C)c1ccccc1)c1ccccc1 (stereo unspecified) has what recorded pIC50?
## Result 5.32

## Task Item "Cl.Cl.Cl.Cl.c1ccc(CNCCCNCCCCCCNCCCNCc2ccccc2)cc1" has what recorded pIC50?
## Result 5.28

## Task Item "c1csc(CNCCCNCCCCCCCNCCCNCc2cccs2)c1" has what recorded pIC50?
## Result 5.35

## Task Item "Cl.Cl.Cl.Cl.c1ccc(CNCCCNCCCCCCCCCCCCNCCCNCc2ccccc2)cc1" has what recorded pIC50?
## Result 6.70

## Task Item "c1ccc(CCCNCCCNCCCCCCCNCCCNCCCc2ccccc2)cc1" has what recorded pIC50?
## Result 6.52

## Task Item CC(CCNCCCCCCCNCCC(C)NCc1ccccc1)NCc1ccccc1.Cl.Cl.Cl.Cl (stereo unspecified) has what recorded pIC50?
## Result 5.59

## Task Item "Cl.Cl.Cl.Cl.c1ccc(CNCCCNCCCCCCCNCCCNCc2ccccc2)cc1" has what recorded pIC50?
## Result 5.52

## Task Item "Oc1ccc(CNCCCNCCCCCCCNCCCNCc2ccc(O)cc2)cc1" has what recorded pIC50?
## Result 4.57

## Task Item "NCCCNCCCCCCCNCCCNCc1ccccc1" has what recorded pIC50?
## Result 3.48

## Task Item "Cl.Cl.Cl.Cl.Clc1ccc(CNCCCNCCCCCCCCNCCCNCc2ccc(Cl)cc2)cc1" has what recorded pIC50?
## Result 6.30

## Task Item "c1cc(CNCCCNCCCCCCCNCCCNCc2ccsc2)cs1" has what recorded pIC50?
## Result 5.41

## Task Item "c1ccc(CNCCNCCCCCCCCCCNCCNCc2ccccc2)cc1" has what recorded pIC50?
## Result 6.52
